- Species: Rattus norvegicus
- assaySummary: DrugMatrix - Regimen: Daily Repeat
- Type: toxicity, organism-based, Sprague-Dawley
- Parameters: regimen Daily Repeat, gender Male, age 6-8 weeks
- assayContext: in vivo, ip, 0 mg/kg, […], tissue Blood, route intraperitoneal, dose level Control, time 14 day, vehicle 100 % SALINE
measuredAttribute: ABSOLUTE EOSINOPHIL (cells/µL)
Report as a plain number; the unit cells/µL is understood.

Give the reported value of ABSOLUTE EOSINOPHIL for this record: LEAD (II) ACETATE 140

---

- Species: Rattus norvegicus
- assaySummary: DrugMatrix - Regimen: Daily Repeat
- Assay type: toxicity, organism-based, Sprague-Dawley
- Design: regimen Daily Repeat, gender Male, age 6-8 weeks
- assayContext: in vivo, po, 0 mg/kg, 120 h, tissue Blood, route oral GAVAGE, dose level Control, time 5 day, vehicle 100 % WATER
measuredAttribute: MEAN CORPUSCULAR HEMOGLOBIN (pg)
Write the answer as a number in pg, unit excluded.

Some solved cases for reference:
{"molecule": "C[C@H]1c2cccc(O)c2C(=O)C2=C(O)[C@]3(O)C(=O)C(C(N)=O)=C(O)[C@@H](N(C)C)[C@@H]3[C@@H](O)[C@@H]21.O", "MEAN CORPUSCULAR HEMOGLOBIN, pg": 24.3}
{"molecule": "CN(C)CCCN1c2ccccc2Sc2ccc(Cl)cc21", "MEAN CORPUSCULAR HEMOGLOBIN, pg": 24.67}
{"molecule": "CC(O)CO (stereo not given)", "MEAN CORPUSCULAR HEMOGLOBIN, pg": 24.72}
{"molecule": "C[C@H](CS)C(=O)N1CCC[C@H]1C(=O)O", "MEAN CORPUSCULAR HEMOGLOBIN, pg": 25.65}
{"molecule": "c1ccc([C@H]2CN3CCSC3=N2)cc1", "MEAN CORPUSCULAR HEMOGLOBIN, pg": 23.95}
{"molecule": "COc1cc2nc(N3CCN(C(=O)C4COc5ccccc5O4)CC3)nc(N)c2cc1OC (stereo not given)", "MEAN CORPUSCULAR HEMOGLOBIN, pg": 24.3}
{"molecule": "N[C@@H](Cc1ccc(O)c(O)c1)C(=O)O", "MEAN CORPUSCULAR HEMOGLOBIN, pg": 24.3}
{"molecule": "CNNCc1ccc(C(=O)NC(C)C)cc1", "MEAN CORPUSCULAR HEMOGLOBIN, pg": 24.97}

Identify the reported MEAN CORPUSCULAR HEMOGLOBIN for the following entry. Cn1cc[nH]c1=S 24.57

Given the molecule C=CCC1(C(C)CCC)C(=O)NC(=O)NC1=O (stereo not given) , write its reported MEAN CORPUSCULAR HEMOGLOBIN. 24.82

Identify measured MEAN CORPUSCULAR HEMOGLOBIN associated with Clc1cccc(Cl)c1N=C1NCCN1 23.65

Retrieve MEAN CORPUSCULAR HEMOGLOBIN measured for Cc1onc(-c2ccccc2Cl)c1C(=O)N[C@@H]1C(=O)N2[C@@H]1SC(C)(C)[C@@H]2C(=O)O and print it. 24.72

Could you please provide reported MEAN CORPUSCULAR HEMOGLOBIN for NCCCCCC(=O)O ? Thanks! 24.72

Query MEAN CORPUSCULAR HEMOGLOBIN for Nc1c2c(nc3ccccc13)CCCC2 23.92

Item C[C@](N)(Cc1ccc(O)c(O)c1)C(=O)O : provide MEAN CORPUSCULAR HEMOGLOBIN 23.8

---

Below, each entry is listed alongside its reported CREATINE PHOSPHOKINASE.
- Organism: Rattus norvegicus
- assaySummary: DrugMatrix - Regimen: Daily Repeat
- Assay type: toxicity, organism-based, Sprague-Dawley
- Set-up: regimen Daily Repeat, gender Male, age 6-8 weeks
- assayContext: in vivo, po, 0 mg/kg, 72 h, tissue Plasma, route oral GAVAGE, dose level Control, time 3 day, […]
Field format: number, assumed u/L, no unit text.

Some compounds with recorded CREATINE PHOSPHOKINASE:
{"compound": "O=NN(CCCl)C(=O)NC1CCCCC1 [LOMUSTINE]", "readoutUnits": "u/L", "CREATINE PHOSPHOKINASE": 200}
{"compound": "Cc1ccc(-c2cc(C(F)(F)F)nn2-c2ccc(S(N)(=O)=O)cc2)cc1 [CELECOXIB]", "readoutUnits": "u/L", "CREATINE PHOSPHOKINASE": 659.17}
{"compound": "C[C@H]1O[C@@H](O[C@H]2[C@@H](O)C[C@H](O[C@H]3[C@@H](O)C[C@H](O[C@H]4CC[C@@]5(C)[C@H](CC[C@@H]6[C@@H]5C[C@@H](O)[C@]5(C)[C@@H](C7=CC(=O)OC7)CC[C@]65O)C4)O[C@@H]3C)O[C@@H]2C)C[C@H](O)[C@@H]1O [DIGOXIN]", "readoutUnits": "u/L", "CREATINE PHOSPHOKINASE": 184.5}
{"compound": "CCC(C)n1ncn(-c2ccc(N3CCN(c4ccc(OCC5COC(Cn6cncn6)(c6ccc(Cl)cc6Cl)O5)cc4)CC3)cc2)c1=O (centres undefined) [ITRACONAZOLE]", "readoutUnits": "u/L", "CREATINE PHOSPHOKINASE": 659.17}
{"compound": "Cc1oncc1C(=O)Nc1ccc(C(F)(F)F)cc1 [LEFLUNOMIDE]", "readoutUnits": "u/L", "CREATINE PHOSPHOKINASE": 277}

Lab note: next compound to report on.
Give recorded CREATINE PHOSPHOKINASE. O=C(O)CCCc1ccc(N(CCCl)CCCl)cc1 [CHLORAMBUCIL] 659.17

---

- Species: Rattus norvegicus
- assaySummary: DrugMatrix - Regimen: Daily Repeat
- Format: toxicity, organism-based, Sprague-Dawley
- Design: regimen Daily Repeat, gender Male, age 6-8 weeks
- assayContext: in vivo, po, 0 mg/kg, 120 h, tissue Plasma, route oral GAVAGE, dose level Control, time 5 day, vehicle 100 % WATER
Recorded SODIUM for the following compounds
# unit: MEQ/L | format: bare number

Solved cases (5 shown):
{"compound": "NCCCCCC(=O)O", "measured": 142.33}
{"compound": "CNNCc1ccc(C(=O)NC(C)C)cc1", "measured": 144.57}
{"compound": "CC(O)CO (stereo not given)", "measured": 142.33}
{"compound": "C[C@H]1c2cccc(O)c2C(=O)C2=C(O)[C@]3(O)C(=O)C(C(N)=O)=C(O)[C@@H](N(C)C)[C@@H]3[C@@H](O)[C@@H]21.O", "measured": 145.55}
{"compound": "c1ccc([C@H]2CN3CCSC3=N2)cc1", "measured": 140.53}

Identify the reported SODIUM for the following entry. Cn1cc[nH]c1=S 145.35

Provide measured SODIUM value, entry: N[C@@H](Cc1ccc(O)c(O)c1)C(=O)O 145.55

State, in one line, measured SODIUM of Nc1c2c(nc3ccccc13)CCCC2 148.17

Consider the compound C[C@H](CS)C(=O)N1CCC[C@H]1C(=O)O . State its measured SODIUM. 144.13

Hello, please tell me recorded SODIUM for this one: Cc1onc(-c2ccccc2Cl)c1C(=O)N[C@@H]1C(=O)N2[C@@H]1SC(C)(C)[C@@H]2C(=O)O 142.33

---

Recorded EOSINOPHIL by entry
- Species on record: Rattus norvegicus
- assaySummary: DrugMatrix - Regimen: Daily Repeat
- Type: toxicity, organism-based, Sprague-Dawley
- Set-up: regimen Daily Repeat, gender Male, age 6-8 weeks
- assayContext: in vivo, po, 0 mg/kg, […], tissue Blood, route oral GAVAGE, dose level Control, time 14 day, vehicle .5 % CMC
Give the quantity in %, number only.

{"compound": "CCOP(=S)(OCC)Oc1nc(Cl)c(Cl)cc1Cl [CHLORPYRIFOS]", "readoutUnits": "%", "measured": 0.8}
{"compound": "COc1ccc(C(=O)Nc2c(Cl)c[n+]([O-])cc2Cl)c2ccc(C(F)(F)F)nc12 [SCH-351591]", "readoutUnits": "%", "measured": 0.6}
{"compound": "ClC(Cl)Br [BROMODICHLOROMETHANE]", "readoutUnits": "%", "measured": 0.83}

// switching to the query compound
Report measured EOSINOPHIL; entry is ClC(Br)Br [DIBROMOCHLOROMETHANE] 0.83

---

- Species on record: Rattus norvegicus
- assaySummary: DrugMatrix - Regimen: Daily Repeat
- Type: toxicity, organism-based, Sprague-Dawley
- Design: regimen Daily Repeat, gender Male, age 6-8 weeks
- assayContext: in vivo, po, 0 mg/kg, 120 h, tissue Blood, route oral GAVAGE, dose level Control, time 5 day, vehicle 100 % WATER
Overview of recorded NUCLEATED RED BLOOD CELLS for various molecules

{"molecule": "Cn1cc[nH]c1=S", "NUCLEATED RED BLOOD CELLS": "0 /100WBC"}
{"molecule": "Clc1cccc(Cl)c1N=C1NCCN1", "NUCLEATED RED BLOOD CELLS": "0.17 /100WBC"}
{"molecule": "Cc1onc(-c2ccccc2Cl)c1C(=O)N[C@@H]1C(=O)N2[C@@H]1SC(C)(C)[C@@H]2C(=O)O", "NUCLEATED RED BLOOD CELLS": "0.17 /100WBC"}

For the molecule C[C@H](CS)C(=O)N1CCC[C@H]1C(=O)O , give its measured NUCLEATED RED BLOOD CELLS value. 0.17 /100WBC

Return NUCLEATED RED BLOOD CELLS (reported value) for this molecule: CNNCc1ccc(C(=O)NC(C)C)cc1 0.17 /100WBC

Write down NUCLEATED RED BLOOD CELLS measured for item c1ccc([C@H]2CN3CCSC3=N2)cc1 0.17 /100WBC

Tell me its NUCLEATED RED BLOOD CELLS given CC(O)CO (stereo not given) as the entry. 0.17 /100WBC

Report NUCLEATED RED BLOOD CELLS, nothing else, for this molecule: C[C@](N)(Cc1ccc(O)c(O)c1)C(=O)O 0.33 /100WBC
